// data source = ChEMBL document CHEMBL4680318

// reported GI50 for each item listed
test system: NCI-H226; experiment: Growth inhibition of human NCI-H226 cells measured after 48 hrs by sulforhodamine B assay; format: functional
Hi! Could you send only the number? It should be in µM, unit omitted.

Prompt line: In one line, give reported GI50 of the entry COc1cc([C@@H]2c3cc4c(cc3[C@@H](O[C@@H]3O[C@@H]5CO[C@@H](C)O[C@H]5[C@H](O)[C@H]3O)[C@H]3COC(=O)[C@H]23)OCO4)cc(OC)c1O [ETOPOSIDE] .
Response line: 4.9

Prompt line: In one line, give reported GI50 of the entry O=c1c(-c2ccc(O)cc2)coc2cc(O)cc(O)c12 .
Response line: 27.5

Next, consider the following compound.
Prompt line: In one line, give reported GI50 of the entry CC(C)(O)[C@@H]1Cc2c(cc(O)c3c(=O)c(-c4ccc(O)cc4)coc23)O1 .
Response line: 0.295
